Target: Polyunsaturated fatty acid 5-lipoxygenase (Homo sapiens)
Test: Inhibition of 5-LO in human neutrophils using arachidonic acid as substrate assessed as residual activity preincubated for 15 mins followed by substrate addition measured after 10 mins in presence of Ca2+ ionophore A23187 by HPLC analysis
Below, each entry is listed alongside its reported Activity.
Returns: string containing the numeric result and its unit.

// known answers, use as guide
1. Cc1ccc(S(=O)(=O)N(Cc2ccccc2Cl)c2ccc(C(=O)O)cc2)cc1: 95.2%
2. Cc1ccc(S(=O)(=O)N(Cc2ccsc2)c2ccc(C(=O)O)cc2)cc1: 98.2%
3. Cc1ccc(S(=O)(=O)N(Cc2ccccc2)c2ccc(C(=O)NS(=O)(=O)c3ccccc3)cc2)cc1: 80%

We next turn to a different compound, shown below.
Prompt line: // fetch Activity given entry `CCCCN(c1ccc(C(=O)O)cc1)S(=O)(=O)c1ccc(C)cc1`
Response line: 112%

Taken from ChEMBL document CHEMBL4270576.
